- experimental system: PI3K δ (Homo sapiens (Human))
- Sequence (O00329 whole entry): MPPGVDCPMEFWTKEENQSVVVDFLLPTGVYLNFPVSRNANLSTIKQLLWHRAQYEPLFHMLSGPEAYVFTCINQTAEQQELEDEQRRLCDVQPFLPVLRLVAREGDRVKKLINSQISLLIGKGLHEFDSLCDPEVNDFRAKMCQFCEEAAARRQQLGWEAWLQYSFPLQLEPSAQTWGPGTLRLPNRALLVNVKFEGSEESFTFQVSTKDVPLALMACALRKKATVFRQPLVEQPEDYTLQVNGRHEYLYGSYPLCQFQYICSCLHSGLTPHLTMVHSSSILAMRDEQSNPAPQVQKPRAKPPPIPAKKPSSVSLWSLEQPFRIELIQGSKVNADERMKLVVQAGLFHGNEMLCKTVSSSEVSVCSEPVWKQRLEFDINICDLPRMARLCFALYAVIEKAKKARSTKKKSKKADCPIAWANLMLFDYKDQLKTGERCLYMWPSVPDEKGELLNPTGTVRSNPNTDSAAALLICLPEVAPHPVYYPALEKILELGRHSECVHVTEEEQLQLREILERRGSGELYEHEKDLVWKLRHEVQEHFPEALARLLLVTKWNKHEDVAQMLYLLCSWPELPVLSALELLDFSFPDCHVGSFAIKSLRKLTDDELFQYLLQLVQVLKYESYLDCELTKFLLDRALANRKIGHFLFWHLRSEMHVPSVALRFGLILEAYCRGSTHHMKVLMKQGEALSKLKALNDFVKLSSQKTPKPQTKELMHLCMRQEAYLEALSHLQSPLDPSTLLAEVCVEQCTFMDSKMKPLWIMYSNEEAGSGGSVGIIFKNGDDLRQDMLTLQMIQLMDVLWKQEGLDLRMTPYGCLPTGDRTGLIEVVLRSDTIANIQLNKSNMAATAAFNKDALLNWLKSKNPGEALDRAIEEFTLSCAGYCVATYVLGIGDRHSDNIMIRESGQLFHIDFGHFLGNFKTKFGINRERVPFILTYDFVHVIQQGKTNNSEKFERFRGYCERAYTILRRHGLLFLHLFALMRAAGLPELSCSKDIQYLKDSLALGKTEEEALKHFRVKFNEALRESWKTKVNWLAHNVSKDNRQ
- Sequence (P27986 whole entry partner): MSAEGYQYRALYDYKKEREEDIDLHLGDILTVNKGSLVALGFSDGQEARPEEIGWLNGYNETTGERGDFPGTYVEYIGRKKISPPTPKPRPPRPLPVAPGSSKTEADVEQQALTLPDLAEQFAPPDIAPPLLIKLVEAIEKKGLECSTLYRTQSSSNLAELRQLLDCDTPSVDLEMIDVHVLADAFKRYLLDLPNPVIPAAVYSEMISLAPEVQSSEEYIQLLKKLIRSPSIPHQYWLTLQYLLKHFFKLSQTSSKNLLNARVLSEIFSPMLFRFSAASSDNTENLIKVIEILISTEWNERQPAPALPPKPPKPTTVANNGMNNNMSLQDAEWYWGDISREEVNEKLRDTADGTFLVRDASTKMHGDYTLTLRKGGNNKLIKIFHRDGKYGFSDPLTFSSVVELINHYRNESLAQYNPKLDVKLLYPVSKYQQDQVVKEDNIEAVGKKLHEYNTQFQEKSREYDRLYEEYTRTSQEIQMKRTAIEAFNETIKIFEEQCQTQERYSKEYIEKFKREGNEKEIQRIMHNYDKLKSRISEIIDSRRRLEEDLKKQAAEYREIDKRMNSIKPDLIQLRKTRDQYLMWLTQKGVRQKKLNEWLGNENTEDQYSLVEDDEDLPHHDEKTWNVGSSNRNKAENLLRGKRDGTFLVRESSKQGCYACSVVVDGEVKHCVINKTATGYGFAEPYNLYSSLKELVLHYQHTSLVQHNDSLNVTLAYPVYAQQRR
pIC50: −log10 of the molar value.
For each entry below, report its pIC50 value.

Request the reported pIC50 associated with C[C@H](NC(=O)c1c(N)nn2cccnc12)c1cc2cccc(C#CC3CCCC3)c2c(=O)n1-c1ccccc1 [Compound 64] 5.00 to 5.30

// query pIC50 value for entry C[C@H](NC(=O)c1c(N)nn2cccnc12)c1cc2cccc(NC(=O)c3cnn(C)c3)c2c(=O)n1-c1ccccc1 [Compound 90] 5.00 to 5.30

So what does the record say about pIC50 for C[C@H](NC(=O)c1c(N)nn2cccnc12)c1cc2cccc(C#Cc3ccncc3)c2c(=O)n1-c1ccccc1 [Compound 26] ? 5.00 to 5.30

pIC50 lookup needed for C[C@H](NC(=O)c1c(N)nn2cccnc12)c1cc2cccc(C#Cc3cnn(C)c3)c2c(=O)n1-c1cccc(F)c1 [Compound 93] , thanks. 5.00 to 5.30

Entry C[C@H](NC(=O)c1c(N)nn2cccnc12)c1cc2cccc(C#CCN3CCN(C)CC3)c2c(=O)n1-c1ccccc1 [Compound 56] : reported pIC50 = ? 5.00 to 5.30

Consider the compound Cc1nc(C)c(C#Cc2cccc3cc([C@H](C)NC(=O)c4c(N)nn5cccnc45)n(-c4ccccc4)c(=O)c23)s1 [Compound 79] and give its measured pIC50. 5.00 to 5.30

Report pIC50 for Cc1ccc(-n2c([C@H](C)NC(=O)c3c(N)nn4cccnc34)cc3cccc(C#Cc4cnn(C)c4)c3c2=O)cc1 [Compound 98] please. 5.00 to 5.30

Value lookup for pIC50; key = CC#Cc1cccc2cc(C(C)NC(=O)c3c(N)nn4cccnc34)c(-c3ccccc3)nc12 (stereo not shown) [Compound 51] 5.30 to 6.00

Field request: pIC50 | item: COc1cc(C#Cc2cccc3cc([C@H](C)NC(=O)c4c(N)nn5cccnc45)n(-c4ccccc4)c(=O)c23)ccn1 [Compound 28] 5.00 to 5.30

What value of measured pIC50 is listed for C[C@H](NC(=O)c1c(N)nn2cccnc12)c1cc2cccc(C#Cc3ccccc3)c2c(=O)n1-c1ccccc1 [Compound 5] ? 6.30 to 9.00

Please look up its pIC50: C[C@H](NC(=O)c1c(N)nn2cccnc12)c1cc2cccc(C#CC3CNC3)c2c(=O)n1-c1ccccc1 [Compound 74] 5.30 to 6.00

Recorded pIC50 for CC(=O)N1CCC(C#Cc2cccc3cc([C@H](C)NC(=O)c4c(N)nn5cccnc45)n(-c4ccccc4)c(=O)c23)CC1 [Compound 82] , please? 5.00 to 5.30

Which pIC50 value is on record for C[C@H](NC(=O)c1c(N)nn2cccnc12)c1cc2cccc(C#CC3CC3)c2c(=O)n1C1CC1 [Compound 24] ? 5.30 to 6.00

Value lookup for pIC50; key = C[C@H](NC(=O)c1c(N)nn2cccnc12)c1cc2cccc(C#Cc3cncn3C)c2c(=O)n1C1CC1 [Compound 23] 5.00 to 5.30

Need pIC50, item C[C@H](NC(=O)c1c(N)nn2cccnc12)c1nc2cccc(C#Cc3cnn(C)c3)c2c(=O)n1C [Compound 55] 5.00 to 5.30

# input compound: C[C@H](NC(=O)c1c(N)nn2cccnc12)c1cc2cccc(C#Cc3cnn(C)c3)c2c(=O)n1CCS(=O)(=O)N(C)C [Compound 104] ; wanted: its pIC50 5.00 to 5.30

Entry C[C@H](NC(=O)c1c(N)nn2cccnc12)c1cc2cccc(C#CC3CCNCC3)c2c(=O)n1-c1ccccc1 [Compound 72] : reported pIC50 = ? 5.00 to 5.30

Can you look up the measured pIC50 of C[C@H](NC(=O)c1c(N)nn2cccnc12)c1cc2ccc3ccccc3c2c(=O)n1-c1ccccc1 [Compound 89] for me? 5.00 to 5.30

Value lookup for pIC50; key = C[C@H](NC(=O)c1c(N)nn2cccnc12)c1cc2cccc(C#CC(C)(C)N)c2c(=O)n1-c1ccccc1 [Compound 8] 5.00 to 5.30

Find the recorded pIC50 belonging to C[C@H](NC(=O)c1c(N)nn2cccnc12)c1cc2cccc(C#CC3(O)CN4CCC3CC4)c2c(=O)n1-c1ccccc1 (stereo partly shown) [Compound 62] and report it. 5.00 to 5.30

Can you look up the measured pIC50 of Cc1ccn2nc(N)c(C(=O)N[C@@H](C)c3cc4cccc(C#Cc5cnn(C)c5)c4c(=O)n3-c3ccccc3)c2n1 [Compound 106] for me? 5.00 to 5.30

pIC50 for C[C@H](NC(=O)c1c(N)nn2cccnc12)c1cc2cccc(C#CCO)c2c(=O)n1-c1ccccc1 [Compound 13] ? 6.00 to 6.30

What pIC50 value was documented for this compound, C[C@H](NC(=O)c1c(N)nn2cccnc12)c1cc2cccc(C#Cc3ccc(=O)n(C)c3)c2c(=O)n1-c1ccccc1 [Compound 20] ? 5.30 to 6.00

Consider the compound Cc1nc(C#Cc2cccc3nc([C@H](C)NC(=O)c4c(N)nn5cccnc45)n(-c4ccccc4)c(=O)c23)cs1 [Compound 63] and give its measured pIC50. 5.00 to 5.30

// query pIC50 value for entry C[C@H](NC(=O)c1c(N)nn2cccnc12)c1cc2cccc(C#CCN3CCOCC3)c2c(=O)n1-c1ccccc1 [Compound 10] 5.00 to 5.30

Given the entry Cc1nnc(C#Cc2cccc3cc([C@H](C)NC(=O)c4c(N)nn5cccnc45)n(-c4ccccc4)c(=O)c23)s1 [Compound 86] , report its measured pIC50. 5.30 to 6.00

Requested read-out: pIC50. Entry: CC#Cc1cccc2nc([C@H](C)NC(=O)c3c(N)nn4cccnc34)n(-c3ccccc3)c(=O)c12 [Compound 1] 6.00 to 6.30

Item Cc1cc(C)n2nc(N)c(C(=O)N[C@@H](C)c3cc4cccc(C#Cc5cnn(C)c5)c4c(=O)n3-c3ccccc3)c2n1 [Compound 108] has what recorded pIC50? 5.00 to 5.30

* * *

- assay text: Mouse pharmacokinetics, oral single and repeat dose
- condition info: in vivo, 10 mg/kg in NMP solution, read-out: Mouse PK AUClast @ 10 mg/kg in NMP solution
parameter: AUC(0-t) (ng·h/mL)
# unit: ng·h/mL | format: bare number

Look up AUC(0-t) for this compound: C[C@H](NC(=O)c1c(N)nn2cccnc12)c1cc2cccc(C#Cc3cnn(C)c3)c2c(=O)n1-c1ccccc1 83700

* * *

Field: IC50. Provide a value for each of the molecules that follow.

Which IC50 is reported with PI3K δ (Homo sapiens (Human)) for this entry: C[C@H](NC(=O)c1c(N)nn2cccnc12)c1cc2cccc(C#C[C@@H](C)O)c2c(=O)n1-c1ccccc1 ? 0.5 to 1 µM

Notebook entry, PI3K δ (Homo sapiens (Human)) assay: IC50 of Cc1nc(C#Cc2cccc3cc([C@H](C)NC(=O)c4c(N)nn5cccnc45)n(-c4ccccc4)c(=O)c23)cs1 = ? 5 to 10 µM

Which measured IC50 belongs to Cc1cnc(C(=O)N[C@@H](C)c2cc3cccc(C#Cc4cnn(C)c4)c3c(=O)n2-c2ccccc2)c(N)n1 , tested on PI3K δ (Homo sapiens (Human))? 5 to 10 µM

Report IC50 for C[C@H](NC(=O)c1c(N)nn2cccnc12)c1cc2cccc(C#Cc3cncs3)c2c(=O)n1-c1ccccc1 tested on PI3K δ (Homo sapiens (Human)). 5 to 10 µM

What reported IC50 corresponds to C#Cc1cccc2nc([C@H](C)NC(=O)c3c(N)nn4cccnc34)n(-c3ccccc3)c(=O)c12 on PI3K δ (Homo sapiens (Human))? 1 to 5 µM

Form: Entry = C[C@H](NC(=O)c1c(N)nn2cccnc12)c1cc2cccc(C#CC3CCN(C)CC3)c2c(=O)n1-c1ccccc1 | System = PI3K δ (Homo sapiens (Human)) | IC50 = ____ 5 to 10 µM

// map Cc1cccc(-n2c([C@H](C)NC(=O)c3c(N)nn4cccnc34)cc3cccc(C#Cc4cnn(C)c4)c3c2=O)c1 to recorded IC50 (system: PI3K δ (Homo sapiens (Human))) 5 to 10 µM

* * *

- experimental system: UniProtKB P48736
- Sequence (P48736 whole entry): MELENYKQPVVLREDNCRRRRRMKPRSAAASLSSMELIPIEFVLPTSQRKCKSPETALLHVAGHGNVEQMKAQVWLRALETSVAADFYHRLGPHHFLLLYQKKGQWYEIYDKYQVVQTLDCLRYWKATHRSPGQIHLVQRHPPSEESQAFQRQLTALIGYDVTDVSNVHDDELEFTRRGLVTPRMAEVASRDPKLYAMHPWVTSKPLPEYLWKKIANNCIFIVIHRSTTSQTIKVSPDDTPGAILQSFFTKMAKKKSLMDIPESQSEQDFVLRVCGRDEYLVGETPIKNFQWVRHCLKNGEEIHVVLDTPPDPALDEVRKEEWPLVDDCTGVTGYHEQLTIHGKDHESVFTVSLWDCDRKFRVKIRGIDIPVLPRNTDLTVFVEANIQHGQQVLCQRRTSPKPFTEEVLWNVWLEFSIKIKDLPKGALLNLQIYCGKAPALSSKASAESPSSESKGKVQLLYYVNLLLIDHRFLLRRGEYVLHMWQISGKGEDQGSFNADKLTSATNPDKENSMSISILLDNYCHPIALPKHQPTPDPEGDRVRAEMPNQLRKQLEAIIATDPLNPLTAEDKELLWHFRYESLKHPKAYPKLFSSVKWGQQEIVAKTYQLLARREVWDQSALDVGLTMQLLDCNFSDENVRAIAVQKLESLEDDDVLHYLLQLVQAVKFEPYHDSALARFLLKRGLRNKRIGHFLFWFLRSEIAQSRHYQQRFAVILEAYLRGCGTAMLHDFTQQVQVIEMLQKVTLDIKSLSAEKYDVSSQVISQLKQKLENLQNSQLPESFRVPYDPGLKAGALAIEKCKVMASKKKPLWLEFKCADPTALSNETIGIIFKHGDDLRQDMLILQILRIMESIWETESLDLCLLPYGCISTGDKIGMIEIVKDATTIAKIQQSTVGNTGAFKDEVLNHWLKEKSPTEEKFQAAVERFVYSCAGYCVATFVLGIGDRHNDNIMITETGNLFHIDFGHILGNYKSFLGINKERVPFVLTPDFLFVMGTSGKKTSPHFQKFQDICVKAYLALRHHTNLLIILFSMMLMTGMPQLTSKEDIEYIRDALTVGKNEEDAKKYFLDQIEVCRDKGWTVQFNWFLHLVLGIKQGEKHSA
- assay text: PI3-Kinase Promega ADP-Glo Max assay
- Type: biochemical
parameter: PI3K δ/PI3K γ IC50 (selectivity)

Example entries begin here.
{"compound": "C[C@H](NC(=O)c1c(N)nn2cccnc12)c1cc2cccc(CC(=O)c3cnn(C)c3)c2c(=O)n1-c1ccccc1", "PI3K δ/PI3K γ IC50 (selectivity)": "W (W = >1 to <10)"}
{"compound": "Cc1ccn2nc(N)c(C(=O)N[C@@H](C)c3cc4cccc(C#Cc5cnn(C)c5)c4c(=O)n3-c3ccccc3)c2n1", "PI3K δ/PI3K γ IC50 (selectivity)": "Y (Y = 50 to <850)"}
{"compound": "C[C@H](NC(=O)c1c(N)nn2cccnc12)c1cc2cccc(C#Cc3cnn(C)c3)c2c(=O)n1-c1ccc(F)c(F)c1", "PI3K δ/PI3K γ IC50 (selectivity)": "X (X = 10 to <50)"}
{"compound": "C[C@H](NC(=O)c1c(N)nn2cccnc12)c1cc2cccc(C#CC(C)(C)C)c2c(=O)n1-c1ccccc1", "PI3K δ/PI3K γ IC50 (selectivity)": "W (W = >1 to <10)"}
{"compound": "C[C@H](NC(=O)c1c(N)nn2cccnc12)c1cc2cccc(C#CC3CC3)c2c(=O)n1-c1ccccc1", "PI3K δ/PI3K γ IC50 (selectivity)": "X (X = 10 to <50)"}
{"compound": "Cc1ccncc1C#Cc1cccc2cc([C@H](C)NC(=O)c3c(N)nn4cccnc34)n(-c3ccccc3)c(=O)c12", "PI3K δ/PI3K γ IC50 (selectivity)": "X (X = 10 to <50)"}
{"compound": "C[C@H](NC(=O)c1c(N)nn2cccnc12)c1cc2cccc(C#CC3CCCCC3)c2c(=O)n1-c1ccccc1", "PI3K δ/PI3K γ IC50 (selectivity)": "W (W = >1 to <10)"}
{"compound": "C[C@H](NC(=O)c1c(N)nn2cccnc12)c1cc2cccc(C#CC3CCNCC3)c2c(=O)n1-c1ccccc1", "PI3K δ/PI3K γ IC50 (selectivity)": "X (X = 10 to <50)"}
{"compound": "C[C@H](O)C#Cc1cccc2cc([C@H](C)NC(=O)c3c(N)nn4cccnc34)n(-c3ccccc3)c(=O)c12", "PI3K δ/PI3K γ IC50 (selectivity)": "Y (Y = 50 to <850)"}
{"compound": "CC#Cc1cccc2cc(C(C)NC(=O)c3c(N)nn4cccnc34)c(-c3ccccc3)nc12 (stereo not drawn)", "PI3K δ/PI3K γ IC50 (selectivity)": "W (W = >1 to <10)"}

Give the measured PI3K δ/PI3K γ IC50 (selectivity) of C[C@H](NC(=O)c1c(N)nn2cccnc12)c1cc2cccc(C#CC3(O)CN4CCC3CC4)c2c(=O)n1-c1ccccc1 (stereo partly drawn) . X (X = 10 to <50)

So what's the measured PI3K δ/PI3K γ IC50 (selectivity) for this one? Cc1nc(C)c(C#Cc2cccc3cc([C@H](C)NC(=O)c4c(N)nn5cccnc45)n(-c4ccccc4)c(=O)c23)s1 X (X = 10 to <50)

I have this compound here, Cc1ccccc1-n1c([C@H](C)NC(=O)c2c(N)nn3cccnc23)cc2cccc(C#Cc3cnn(C)c3)c2c1=O , and I need its recorded PI3K δ/PI3K γ IC50 (selectivity). Y (Y = 50 to <850)

Field request: PI3K δ/PI3K γ IC50 (selectivity) | item: Cc1ccc(-n2c([C@H](C)NC(=O)c3c(N)nn4cccnc34)cc3cccc(C#Cc4cnn(C)c4)c3c2=O)cc1 X (X = 10 to <50)

What does the record list as PI3K δ/PI3K γ IC50 (selectivity) for C[C@H](NC(=O)c1c(N)nn2cccnc12)c1cc2cccc(C#Cc3cnn(C)c3)c2c(=O)n1-c1cccc(F)c1 ? Y (Y = 50 to <850)
